Test: anti-His antibody binders, primary screen, artefact control for SMM control protein annotation, biochemical, small-molecule microarray, 635 nm fluorescence (AID 1128);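 note: score merges feature fluorescence with signal-to-noise for each printed compound spot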
Details: anti-His Alexa647 antibody binding, higher = more signal

- compound: "O=C1C2C=CC(C(O)c3cc(C(F)(F)F)cc(C(F)(F)F)c3)N(Nc3ccccc3F)C2C(=O)N1c1ccccc1 (centres undefined)"
  composite z-score: -0.102
- compound: "C=CCN1C(=O)[C@]2(O[C@H](CCO)[C@@H]([Si](C)(C)c3ccc(OC)cc3)[C@@H]2C)c2cc(N3C(=O)COc4ccccc43)ccc21"
  composite z-score: 1.3
- compound: "CN(C)C(=O)[C@@]1(Cc2ccccc2)COC(c2ccc(OCCCO)cc2)=N1"
  composite z-score: 0.468
- compound: "NC(=O)N1C(=O)C2C(C1=O)C1C=C(CCCO)C2C(C2CC2)N1Cc1cccc(OC(F)(F)F)c1 (centres undefined)"
  composite z-score: 0.589
- compound: "CC(C)C[C@@H]1NC(=O)[C@@H]2C[C@H](C(=O)NCCCCCC[N+](C)(C)C)[C@H](c3cccc(OCCO)c3)N2C1=O"
  composite z-score: -0.759
- compound: "O=C1[C@@H]2[C@@H](CC(COc3ccccc3)=C3[C@@H](CCc4ccccc4)OB(O)C[C@@H]32)C(=O)N1Cc1ccccc1"
  composite z-score: -0.147
- compound: "CCCCCN1CC=CC23O[C@@H]4/C=C\\CCC(C)OC(=O)C4[C@H]2C(=O)N(CCCCCCO)[C@@H]3C1=O (some centres undefined)"
  composite z-score: 0.371
- compound: "C=CCNC(=O)[C@@H]1[C@H]2C(=O)O[C@H](c3ccccc3)[C@H](c3ccccc3)N2[C@H](c2ccc(OCCO)cc2)[C@@]12C(=O)N(C(=O)OCCOC)c1ccc(C#CCCO)cc12"
  composite z-score: 0.32
- compound: "COCCOC(=O)N1C(=O)[C@@]2(c3cc(C#CCNC(N)=O)ccc31)[C@H](c1ccc(OCCO)cc1)N1[C@H](c3ccccc3)[C@H](c3ccccc3)OC(=O)[C@H]1[C@@H]2C(N)=O"
  composite z-score: 1.11
- compound: "COCCOC(=O)N1C(=O)[C@@]2(c3cc(C#CCC(C(=O)OC)C(=O)OC)ccc31)[C@H](c1ccc(OCCO)cc1)N1[C@H](c3ccccc3)[C@H](c3ccccc3)OC(=O)[C@H]1[C@@H]2C(=O)Nc1nc2ccccc2s1"
  composite z-score: 0.572
- compound: "COC(=O)[C@@]1(Cc2ccc(F)cc2)[C@H]2c3cc(C(=O)N4CCCC4)n(C)c3C[C@H]2CN1C(=O)c1ccccc1"
  composite z-score: 2.46
- compound: "CS(=O)(=O)CCOC(=O)C1=CC(CCCO)=CC(C2CC2)N(Cc2cccc(OC(F)(F)F)c2)C=C1C(=O)OCCS(C)(=O)=O (centres undefined)"
  composite z-score: 1.96
- compound: "CN(C)CCCC[C@@H]1NC(=O)[C@@H]2C[C@H](C(=O)O)[C@H](c3cccc(OCCO)c3)N2C1=O"
  composite z-score: 1.22
- compound: "COC(=O)[C@@]1(Cc2ccc(OC)cc2)[C@H]2c3cc(C(=O)N4CCCC4)n(Cc4ccc(S(C)(=O)=O)cc4)c3C[C@H]2CN1C(=O)c1ccccc1"
  composite z-score: 0.486

###

Assay: inhibitors of hydroxyurea-induced Chk1 phosphorylation, primary screen, imaging, HeLa, phospho-Chk1 nuclear intensity (AID 1187); note: test concentration not given here
Conditions: hydroxyurea-induced phospho-Chk1 immunofluorescence imaging, higher = more signal
z-score values by entry

- molecule: "[N-]=[N+]=Nc1ccccc1C[C@]1(C(=O)O)N=C(c2ccc(OCCCO)cc2)O[C@H]1c1ccccc1N=[N+]=[N-]"
  z-score: 0.0939
- molecule: "C#C[C@@H](CC)O[Si](C#CCCCC#N)(C(C)C)C(C)C"
  z-score: 0.0685
- molecule: "CN1C=C(C(=O)OCCS(C)(=O)=O)C(C(=O)OCCS(C)(=O)=O)=CC(c2ccc(CO)cc2)=CC1c1cccs1 (centres undefined)"
  z-score: -0.265
- molecule: "C=C(COC)/C(=C/C[C@@H](OC(C)=O)c1ccc(CO)o1)c1cc(C(=O)OC)ccc1OC"
  z-score: -1.26
- molecule: "CN1C(=O)C2C(C1=O)C1C=C(CCCO)C2C(C2CC2)N1Cc1cc2c(cc1Br)OCO2 (centres undefined)"
  z-score: 0.27
- molecule: "COCCCNC(=O)[C@@]1(c2ccc([N+](=O)[O-])cc2)CC(=O)N(C(C)C)[C@@H]1c1ccc(CO)cc1"
  z-score: 0.621
- molecule: "CC(C)C[C@@H]1NC(=O)[C@H]2C[C@@H](C(=O)NCCCCCN)[C@@H](c3cccc(OCCO)c3)N2C1=O"
  z-score: 0.0992
- molecule: "C=CCN1C(=O)[C@]2(O[C@H](CCO)[C@@H]([Si](C)(C)c3ccc(OC)cc3)[C@@H]2C)c2cc(N3C(=O)COc4ccccc43)ccc21"
  z-score: -1.34
- molecule: "O=C1O[C@H](c2ccccc2)[C@H](c2ccccc2)N2[C@H]1[C@@H](C(=O)N1CCCCCCC1)[C@]1(C(=O)Nc3ccc(C#CC4(O)CCCCCC4)cc31)[C@H]2c1ccc(O)cc1"
  z-score: -1.07
- molecule: "COCCOC(=O)N1C(=O)[C@@]2(c3cc(C#CC4=CCCCC4)ccc31)[C@H](c1ccc(O)cc1)N1[C@H](c3ccccc3)[C@H](c3ccccc3)OC(=O)[C@H]1[C@@H]2C(=O)NC[C@H](O)c1ccccc1"
  z-score: 0.129
- molecule: "CC(=O)NCCCC[C@@H]1NC(=O)[C@H]2C[C@@H](C(=O)NCCCCCNC(=O)CS)[C@@H](c3cccc(OCCO)c3)N2C1=O"
  z-score: 0.591
- molecule: "CCC(CC)C(O)C1C=CC2C(=O)N(c3ccccc3)C(=O)C2N1Nc1ccc([N+](=O)[O-])cc1 (centres undefined)"
  z-score: -1.56
- molecule: "C=CCNC(=O)[C@H]1[C@@H]2C(=O)O[C@@H](c3ccccc3)[C@@H](c3ccccc3)N2[C@@H](c2ccc(OCCO)cc2)[C@]12C(=O)Nc1ccc(C#CCNC(N)=O)cc12"
  z-score: 0.183
- molecule: "C=C(COC)C(=O)CC[C@H](OC(=O)c1cccnc1)c1ccc(CO)o1"
  z-score: -0.143
- molecule: "CCCC=C(CCC)[C@@H](NS(=O)(=O)c1cccc2cccnc12)c1ccc(-c2ccccc2)cc1"
  z-score: 0.309
- molecule: "C=C(C(=O)CC[C@H](OC(=O)c1ccccc1-c1ccccc1C(=O)O)c1ccccc1OCCO)C(C)C"
  z-score: -0.0147
- molecule: "C=CCNC(=O)[C@H]1[C@@H]2C(=O)O[C@@H](c3ccccc3)[C@@H](c3ccccc3)N2[C@@H](c2ccc(OCCO)cc2)[C@]12C(=O)N(C(=O)OCCOC)c1ccc(C#Cc3ccc(OC)cc3)cc12"
  z-score: -0.744
- molecule: "COc1cc2c(cc1O)C(c1cccs1)N(Cc1sc3ccccc3c1Cl)CC2 (centres undefined)"
  z-score: 0.638
- molecule: "CC(C)C(CO)N1C(=O)[C@@H]2[C@H]3C(=O)OCC=C[C@H]3OC23C=CCN(C(C)(C)C)C(=O)[C@@H]13 (some centres undefined)"
  z-score: -0.418
- molecule: "[N-]=[N+]=Nc1ccccc1C[C@]1(C(=O)O)N=C(c2ccc(OCCCO)cc2)O[C@H]1c1ccccc1"
  z-score: 0.558
- molecule: "COc1ccc([Si](C)(C)[C@@H]2[C@@H](CC(=O)N3Cc4ccccc4C[C@H]3CO)O[C@]3(C(=O)N(Cc4ccc(N5CCC5=O)cc4)c4ccccc43)[C@H]2C)cc1"
  z-score: 0.14
- molecule: "CN1C(=O)C2C=CC(C(O)c3cc(C(F)(F)F)cc(C(F)(F)F)c3)N(NC(=O)OC(C)(C)C)C2C1=O (centres undefined)"
  z-score: 0.275
- molecule: "CC(C)CCC[C@@H](C)[C@H]1CC[C@@]2(C)C3=C(CC[C@]12C)[C@@]1(C)CC[C@H](OC(=O)c2ccccc2)C(C)(C)C1CC3 (some centres undefined)"
  z-score: -0.299
- molecule: "NCCCCCNC(=O)[C@@H]1C[C@@H]2C(=O)N3CCC[C@H]3C(=O)N2[C@@H]1c1ccc(O)cc1"
  z-score: 0.235
- molecule: "COCC(=C=CC[C@H](O)c1cccc(OCCO)c1)C[C@H](O)COCc1ccccc1"
  z-score: 0.443
- molecule: "O=C1C2C=CC(C(O)c3ccco3)N(Nc3ccccc3)C2C(=O)N1c1ccccc1 (centres undefined)"
  z-score: -0.0253
- molecule: "O=C1C[C@@](C(=O)NCC(F)(F)F)(c2ccc([N+](=O)[O-])cc2)[C@@H](c2ccc(CO)cc2)N1CC12CC3CC(CC(C3)C1)C2"
  z-score: -0.661
- molecule: "CC1(C)C(=O)C(c2ccccc2)=C2CN3C(=O)N(CCc4ccccc4)C(=O)C3(Cc3ccc(C(F)(F)F)cc3)C=C21 (centres undefined)"
  z-score: 0.0024
- molecule: "O=C1C2C=CC(C(O)C=Cc3ccc([N+](=O)[O-])cc3)N(Nc3ccccc3)C2C(=O)N1c1ccccc1 (centres undefined)"
  z-score: -0.913

Data credit: PubChem BioAssay
